Test system: TGF-β receptors
Assay: Inhibition of specific binding of 125I-TGF-β2 to TGF-β receptors in mink lung epithelial cells
Conditions: 0.1 nM 125I-TGF-β2, 2.5 hr at 0° C.; read-out: IC50 for inhibiting 125I-TGF-β2 binding to TGF-β receptors
readout name: IC50

Bench note: what IC50 did ANFCSGPCPYLRSADTTHSTVLGLY [peptide β3^25 (41-65)] show?
~20 µM

====

System: TGF-β receptors
Test: Inhibition of specific binding of 125I-TGF-β1 to TGF-β receptors in mink lung epithelial cells
Settings: 0.1 nM 125I-TGF-β1, 2.5 hr at 0° C.; read-out: IC50 for inhibiting 125I-TGF-β1 binding to TGF-β receptors
Below: a set of entries, each annotated with reported IC50.

[
  {
    "substance": "ANFCSGPCPYLRSADTTHSTVLGLY [peptide β3^25 (41-65)]",
    "observed value": "~20 µM"
  }
]

Requested field: IC50. Item: β2^10 (49-58) S53A (PYLWASDTQH)
~40 µM

Reference for the values: patent US7723473B2
